system: L1210; assay: Evaluated for concentration which when added to cultures of L1210 leukemia cells for a period of 70 hr reduces cell numbers of 50% of control cultures; type: functional, cell-based; settings: Mus musculus, L1210, 70 h
PARAMETER_MEASURED: pIC50
Lab note: report pIC50 as minus log10 of the concentration in molar units, number only.

In: // lookup pIC50 | system=L1210 | key= CN(C)CCN(C)C(=O)c1cccc2c(N)c3ccccc3nc12
Out: 5.28

In: // lookup pIC50 | system=L1210 | key= COc1ccc(C(=O)NCCN(C)C)c2nc3ccccc3c(N)c12
Out: 9.22

In: // lookup pIC50 | system=L1210 | key= Nc1c2ccccc2nc2ccccc12 [AMINACRINE]
Out: 5.59

In: // lookup pIC50 | system=L1210 | key= CN(C)CCCCNC(=O)c1cccc2c(N)c3ccccc3nc12
Out: 6.37
